protocol details: Biodistribution: organ distribution of F-18 signal in mice
Format: in vivo, male NMRI mice
particulars: spleen, 5 min post i.v. injection
measured quantity: Organ distribution of F-18 signal, spleen
Give the figure together with its unit, number first.

O=C(NCC(=O)N1CCN(c2ccc(OCc3ccccc3)cc2)CC1)c1ccnc([18F])c1 [Example 11c] = 2.01 % ID/g

What measured Organ distribution of F-18 signal, spleen goes with O=C(NCC(=O)N1CCN(c2ccc(OCc3ccccc3)cc2)CC1)c1cccnc1[18F] [Example 12c] ? 2.08 % ID/g

Subsequent entry: O=C(NCC(=O)N1CCN(c2ccc(OCc3ccccc3)cn2)CC1)c1ccnc([18F])c1 [Example 14f] 2.25 % ID/g

Would you mind doing O=C(NCC(=O)N1CCN(c2ccc(OCc3ccccc3)cc2)CC1)c1cccc(OCC[18F])c1 [Example 3g] as well? 2.22 % ID/g

Repeat for the following compound: O=C(NCC(=O)N1CCN(c2ccc(OCc3ccccc3)cc2)CC1)c1ccc([18F])nc1 [Example 10e] 1.99 % ID/g

###

protocol details: Biodistribution: organ distribution of F-18 signal in mice
Format: in vivo, male NMRI mice
particulars: lung, 5 min post i.v. injection
measured quantity: Organ distribution of F-18 signal, lung (% ID/g)
Just the number in % ID/g, nothing appended.

O=C(NCC(=O)N1CCN(c2ccc(OCc3ccccc3)cc2)CC1)c1cccc(OCC[18F])c1 [Example 3g] = 4.05
O=C(NCC(=O)N1CCN(c2ccc(OCc3ccccc3)cc2)CC1)c1ccnc([18F])c1 [Example 11c] = 3.76
O=C(NCC(=O)N1CCN(c2ccc(OCc3ccccc3)cc2)CC1)c1ccc([18F])nc1 [Example 10e] = 3.86

GET /values?readout=Organ distribution of F-18 signal, lung&item= O=C(NCC(=O)N1CCN(c2ccc(OCc3ccccc3)cn2)CC1)c1ccnc([18F])c1 [Example 14f] 3.93

Similarly, O=C(NCC(=O)N1CCN(c2ccc(OCc3ccccc3)cc2)CC1)c1cccnc1[18F] [Example 12c] ? 3.73

###

protocol details: Biodistribution: organ distribution of F-18 signal in mice
Type: in vivo, male NMRI mice
particulars: testicle, 2 min post i.v. injection
Experimental: Biodistribution and excretion studies were performed in male NMRI mice (body weight app. 30g; 3 animals per time point). The animals were kept under normal laboratory conditions at a temperature of 22±2° C. and a dark/light rhythm of 12 hours. Food and water were provided ad libitium. […] At 2, 5, 30, 60, 240 min post intravenous injection via the tail vein of ca. 150 kBq in 100 μl of the test compound, urine and feces were quantitatively collected. […]
Reported Organ distribution of F-18 signal, testicle by item:
Write the value in % ID/g as a bare number.

O=C(NCC(=O)N1CCN(c2ccc(OCc3ccccc3)cn2)CC1)c1ccnc([18F])c1 [Example 14f] = 1.42

Sample O=C(NCC(=O)N1CCN(c2ccc(OCc3ccccc3)cc2)CC1)c1ccc([18F])nc1 [Example 10e] — what was its Organ distribution of F-18 signal, testicle? 1.53

Another: O=C(NCC(=O)N1CCN(c2ccc(OCc3ccccc3)cc2)CC1)c1ccnc([18F])c1 [Example 11c] 1.36

Now consider O=C(NCC(=O)N1CCN(c2ccc(OCc3ccccc3)cc2)CC1)c1cccnc1[18F] [Example 12c] . 1.21

Try the compound O=C(NCC(=O)N1CCN(c2ccc(OCc3ccccc3)cc2)CC1)c1cccc(OCC[18F])c1 1.19

###

protocol details: Biodistribution: organ distribution of F-18 signal in mice
Format: in vivo, male NMRI mice
particulars: lung, 2 min post i.v. injection
# key: entry, value: Organ distribution of F-18 signal, lung
Write down the numeric answer in % ID/g and omit the unit.

Check out these entries, answers already filled in.
O=C(NCC(=O)N1CCN(c2ccc(OCc3ccccc3)cc2)CC1)c1cccc(OCC[18F])c1 = 5.58
O=C(NCC(=O)N1CCN(c2ccc(OCc3ccccc3)cc2)CC1)c1cccnc1[18F] [Example 12c] = 3.52
O=C(NCC(=O)N1CCN(c2ccc(OCc3ccccc3)cn2)CC1)c1ccnc([18F])c1 [Example 14f] = 3.63
O=C(NCC(=O)N1CCN(c2ccc(OCc3ccccc3)cc2)CC1)c1ccc([18F])nc1 [Example 10e] = 4.31

Requested field: Organ distribution of F-18 signal, lung. Item: O=C(NCC(=O)N1CCN(c2ccc(OCc3ccccc3)cc2)CC1)c1ccnc([18F])c1 [Example 11c] 4.14

###

protocol details: Biodistribution: organ distribution of F-18 signal in mice
Format: in vivo, male NMRI mice
particulars: adrenals, 60 min post i.v. injection
Recorded measurements of Organ distribution of F-18 signal, adrenals, one per entry
Answer with the value and then the unit.

O=C(NCC(=O)N1CCN(c2ccc(OCc3ccccc3)cn2)CC1)c1ccnc([18F])c1 [Example 14f] = 1.35 % ID/g
O=C(NCC(=O)N1CCN(c2ccc(OCc3ccccc3)cc2)CC1)c1ccnc([18F])c1 [Example 11c] = 2.45 % ID/g
O=C(NCC(=O)N1CCN(c2ccc(OCc3ccccc3)cc2)CC1)c1cccc(OCC[18F])c1 [Example 3g] = 1.77 % ID/g

Data request, read-out Organ distribution of F-18 signal, adrenals, for O=C(NCC(=O)N1CCN(c2ccc(OCc3ccccc3)cc2)CC1)c1ccc([18F])nc1 [Example 10e] 0.67 % ID/g

Continue with O=C(NCC(=O)N1CCN(c2ccc(OCc3ccccc3)cc2)CC1)c1cccnc1[18F] [Example 12c] 1.55 % ID/g

###

protocol details: Biodistribution: organ distribution of F-18 signal in mice
Type: in vivo, male NMRI mice
particulars: blood, 2 min post i.v. injection
measured quantity: Organ distribution of F-18 signal, blood (% ID/g)
Express it in % ID/g; write the number only.

O=C(NCC(=O)N1CCN(c2ccc(OCc3ccccc3)cc2)CC1)c1cccnc1[18F] [Example 12c] = 1.78
O=C(NCC(=O)N1CCN(c2ccc(OCc3ccccc3)cc2)CC1)c1ccnc([18F])c1 [Example 11c] = 1.70
O=C(NCC(=O)N1CCN(c2ccc(OCc3ccccc3)cc2)CC1)c1cccc(OCC[18F])c1 [Example 3g] = 1.72
O=C(NCC(=O)N1CCN(c2ccc(OCc3ccccc3)cc2)CC1)c1ccc([18F])nc1 [Example 10e] = 2.01

Below: the item to evaluate.
Give the measured Organ distribution of F-18 signal, blood of O=C(NCC(=O)N1CCN(c2ccc(OCc3ccccc3)cn2)CC1)c1ccnc([18F])c1 [Example 14f] . 2.05

###

protocol details: Biodistribution: organ distribution of F-18 signal in mice
Format: in vivo, male NMRI mice
particulars: adrenals, 240 min post i.v. injection
Binary call on Organ distribution of F-18 signal, adrenals with cut-off 0.4 % ID/g: strictly below means True, and equality or higher means False.

The following molecules have reported results that may help.
O=C(NCC(=O)N1CCN(c2ccc(OCc3ccccc3)cc2)CC1)c1ccnc([18F])c1 [Example 11c] = True
O=C(NCC(=O)N1CCN(c2ccc(OCc3ccccc3)cc2)CC1)c1ccc([18F])nc1 [Example 10e] = False
O=C(NCC(=O)N1CCN(c2ccc(OCc3ccccc3)cn2)CC1)c1ccnc([18F])c1 [Example 14f] = True

Read the next record carefully.
Check if Organ distribution of F-18 signal, adrenals falls below 0.4 % ID/g for O=C(NCC(=O)N1CCN(c2ccc(OCc3ccccc3)cc2)CC1)c1cccc(OCC[18F])c1 [Example 3g] . False

###

protocol details: Biodistribution: organ distribution of F-18 signal in mice
Assay type: in vivo, male NMRI mice
particulars: muscle, 2 min post i.v. injection
Method: Biodistribution and excretion studies were performed in male NMRI mice (body weight app. 30g; 3 animals per time point). The animals were kept under normal laboratory conditions at a temperature of 22±2° C. and a dark/light rhythm of 12 hours. Food and water were provided ad libitium. […] At 2, 5, 30, 60, 240 min post intravenous injection via the tail vein of ca. 150 kBq in 100 μl of the test compound, urine and feces were quantitatively collected. […]
Where Organ distribution of F-18 signal, muscle equals or exceeds 2 % ID/g, the correct label is y; where it does not, the label is n.

Study these solved cases before continuing.
O=C(NCC(=O)N1CCN(c2ccc(OCc3ccccc3)cc2)CC1)c1cccnc1[18F] [Example 12c] = y
O=C(NCC(=O)N1CCN(c2ccc(OCc3ccccc3)cn2)CC1)c1ccnc([18F])c1 [Example 14f] = n
O=C(NCC(=O)N1CCN(c2ccc(OCc3ccccc3)cc2)CC1)c1cccc(OCC[18F])c1 = y
O=C(NCC(=O)N1CCN(c2ccc(OCc3ccccc3)cc2)CC1)c1ccnc([18F])c1 [Example 11c] = y

Is the recorded value of Organ distribution of F-18 signal, muscle equal to or greater than 2 % ID/g for this compound? O=C(NCC(=O)N1CCN(c2ccc(OCc3ccccc3)cc2)CC1)c1ccc([18F])nc1 [Example 10e] y
